B1: Formin-binding protein 4, residues 200 to 261; numbered along this chain, Q8N3X1 (parent)
chain: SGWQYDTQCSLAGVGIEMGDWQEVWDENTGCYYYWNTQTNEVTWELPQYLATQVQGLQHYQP

# Variants of: B1
# RUN DESCRIPTION: abundance fitness (aPCA) (normalised: wild type 0, dead -1); higher = more abundant; growth selection in yeast, the domain comes from the species named
# SETTINGS: Homo sapiens
EXPERIMENTAL READOUT: abundance fitness
Lab note: record just the number, no unit beside it.

Quick check: abundance fitness of D20P ?
-0.252

Quick check: abundance fitness of T52M ?
-0.218

Quick check: abundance fitness of E45Q ?
0.05

Quick check: abundance fitness of D26N ?
-0.084

Quick check: abundance fitness of Q4I ?
0.232

Quick check: abundance fitness of Y60S ?
0.066

Quick check: abundance fitness of E17Y ?
-0.838

Quick check: abundance fitness of W3S ?
0.127

Quick check: abundance fitness of H59G ?
-0.017

Quick check: abundance fitness of N36P ?
-0.897

Quick check: abundance fitness of A51W ?
-0.175

Quick check: abundance fitness of Q48L ?
0.043

Quick check: abundance fitness of E45K ?
-0.069

Quick check: abundance fitness of Q48P ?
0.319
